Assay: Stability of cannabinoid and Vitamin E components of Beverage 2 (AB Red) stored at 8° C. and 21-25° C., LCMSMS over 570 days
Conditions: 21-25° C., 570 days
Classify on Stability of Cannabinoids in AB Red using one (below 0.5 µg/mL), two (0.5 µg/mL to below 3 µg/mL), three (3 µg/mL or more)

Compound	Classification
CCCCCc1cc(O)c2c(c1)OC(C)(CCC=C(C)C)C=C2 (stereo not drawn) [CBC, cannabichromene]	one
CCCCCc1cc(O)c(C/C=C(\C)CCC=C(C)C)c(O)c1 [CBG, cannabigerol]	three
CCCCCc1cc2c(c(O)c1C(=O)O)[C@@H]1C=C(C)CC[C@H]1C(C)(C)O2 [D9 THCA, delta-9-tetrahydrocannabinolic acid]	two
CCCCCc1cc(O)c2c(c1)OC1(C)CCC3C1C2C3(C)C (stereo not drawn) [CBL, cannabicyclol]	one
C=C(C)[C@@H]1CCC(C)=C[C@H]1c1c(O)cc(CCC)cc1O [CBDV, cannabidivarin]	one
CCCCCc1cc(O)c2c(c1)OC(C)(C)[C@@H]1CCC(C)=C[C@@H]21 [D9 THC, delta-9-tetrahydrocannabinol, reference compound]	three
CCCCCc1cc(O)c2c(c1)OC(C)(C)c1ccc(C)cc1-2 [CBN, cannabinol]	two
C=C(C)[C@@H]1CCC(C)=C[C@H]1c1c(O)cc(CCCCC)c(C(=O)O)c1O [CBDA, cannabidiolic acid]	two
